Test system: HL-60
Assay: Antiproliferative activity against human HL-60 cells incubated for 72 hrs by MTT assay
Type: functional, cell-based
Settings: HL-60, 72 h
pIC50: −log10 of the molar value.
readout: pIC50

## Task What pIC50 appears in the records for this compound with HL-60? Nc1ncnc2c1c(-c1ccc(F)cc1)cn2C1CCN(CC2CN(c3ccc(S(=O)(=O)C4CCCC4)cc3)C2)CC1
## Result < 5.00

## Task What pIC50 appears in the records for this compound with HL-60? CN(C)CCOc1ncnc2c1ccn2C1CCN(CC2CN(c3ccc(C#N)cc3)C2)CC1
## Result < 5.00

## Task What pIC50 appears in the records for this compound with HL-60? N#Cc1ccc(N2CC(CN3CCC(n4ccc5c(N)ncnc54)CC3)C2)cc1
## Result < 5.00

## Task What pIC50 appears in the records for this compound with HL-60? Nc1ncnc2c1c(-c1ccc(F)cc1)cn2C1CCN(CC2CN(c3ccc(S(=O)(=O)C4CCC4)cc3)C2)CC1
## Result 5.06

## Task What pIC50 appears in the records for this compound with HL-60? Nc1ncnc2c1c(-c1ccc(F)cc1)cn2C1CCN(CC2CN(c3ccc(S(=O)(=O)c4ccncc4)cc3)C2)CC1
## Result < 5.00

## Task What pIC50 appears in the records for this compound with HL-60? CCS(=O)(=O)c1ccc(N2CC(CN3CCC(n4cc(-c5ccc(F)cc5)c5c(N)ncnc54)CC3)C2)cc1
## Result < 5.00

## Task What pIC50 appears in the records for this compound with HL-60? Nc1ncnc2c1c(-c1ccc(F)cc1)cn2C1CCN(CC2CN(c3ccc(S(=O)(=O)C4CC4)cc3)C2)CC1
## Result 5.12

## Task What pIC50 appears in the records for this compound with HL-60? CC[C@H](Nc1ncnc2[nH]cnc12)c1nc2cccc(F)c2c(=O)n1-c1ccccc1 [IDELALISIB]
## Result < 5.00

----------
Test system: MV4-11
Test: Antiproliferative activity against human MV4-11 cells incubated for 7 days by PrestoBlue Cell Viability assay
Type: functional, cell-based
Settings: MV4-11, 168 h
readout: IC50 (nM)
Quick note: give the figure in nM, leave out the unit.

## Task Give its IC50 value. Item: CC(C)N(C)C(=O)c1cc(F)ccc1-n1cc(C2CCN(C(=O)[C@H]3NC4CCC3CC4)CC2)c2ccncc21
## Result 73

----------
Assay: Antiproliferative activity against human NCM460 cells incubated for 72 hrs by MTT assay
Format: toxicity, cell-based
readout: IC50 at 72 h

## Task Give its IC50 at 72 h value. Item: N#Cc1ccc(N2CC(CN3CCC(n4cc(-c5ccc(F)cc5)c5c(N)ncnc54)CC3)C2)cc1
## Result > 10 µM

## Task Give its IC50 at 72 h value. Item: CC[C@H](Nc1ncnc2[nH]cnc12)c1nc2cccc(F)c2c(=O)n1-c1ccccc1
## Result > 10 µM

----------
Molecular target: UniProtKB O00255
Sequence (O00255 whole entry): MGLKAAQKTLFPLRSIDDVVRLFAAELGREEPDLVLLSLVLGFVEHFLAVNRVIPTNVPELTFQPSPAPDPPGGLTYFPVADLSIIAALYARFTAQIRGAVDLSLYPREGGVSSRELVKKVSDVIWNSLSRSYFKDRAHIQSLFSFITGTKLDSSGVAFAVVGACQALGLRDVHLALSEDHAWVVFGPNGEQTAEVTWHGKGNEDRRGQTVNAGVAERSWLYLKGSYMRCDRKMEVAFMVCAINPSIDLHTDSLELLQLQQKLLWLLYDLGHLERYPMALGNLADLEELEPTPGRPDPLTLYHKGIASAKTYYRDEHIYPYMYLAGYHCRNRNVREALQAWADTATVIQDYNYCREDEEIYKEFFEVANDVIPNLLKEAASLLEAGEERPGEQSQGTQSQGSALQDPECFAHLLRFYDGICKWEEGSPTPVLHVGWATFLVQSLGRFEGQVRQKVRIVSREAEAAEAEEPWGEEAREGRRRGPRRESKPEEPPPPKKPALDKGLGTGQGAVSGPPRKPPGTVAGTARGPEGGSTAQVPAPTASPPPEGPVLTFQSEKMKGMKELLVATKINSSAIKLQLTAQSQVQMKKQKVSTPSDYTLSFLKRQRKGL
Assignment: determine reported pIC50 for the given compounds.
Here pIC50 is given on a logarithmic scale as minus log10 of the concentration in mol/L.

## Task Give its pIC50 value. Item: N#Cc1ccc(N2CC(CN3CCC(n4cc(-c5ccc(F)cc5)c5c(N)ncnc54)CC3)C2)cc1
## Result 6.42

## Task Give its pIC50 value. Item: CS(=O)(=O)c1ccc(N2CC(CN3CCC(n4cc(-c5ccc(F)cc5)c5c(N)ncnc54)CC3)C2)cc1
## Result 6.14

## Task Give its pIC50 value. Item: Nc1ncnc2c1c(-c1ccc(F)cc1)cn2C1CCN(CC2CN(c3ccc(S(=O)(=O)C4CCCC4)cc3)C2)CC1
## Result 5.98

## Task Give its pIC50 value. Item: N#Cc1ccc(N2CC(CN3CCC(n4ccc5c(N)ncnc54)CC3)C2)cc1
## Result 5.83

## Task Give its pIC50 value. Item: Nc1ncnc2c1c(-c1ccc(F)cc1)cn2C1CCN(CC2CN(c3ccc(S(=O)(=O)C4CC4)cc3)C2)CC1
## Result 6.33

Origin of values: ChEMBL document CHEMBL5505977
